Attribution: patent US11541132B2

biological target: native aSyn aggregates in A30P transgenic mouse brain sections (Homo sapiens, UniProt P37840, A30P); construct: from tissue; host or cells: brain sections (midbrain and pons as ROI) of A30P transgenic mice, line B6.D2-Tg(Thy1-SNCA*30P)31Pjk; test: aSyn in vitro displacement assay ([3H]Example-3 autoradiography); assay type: binding, mutant human aSyn gene); settings: 1 μM compound; 3 nM [3H]Example-3; A30P transgenic mouse brain sections; read-out: PCT_INHIB A30P @ 1 μM (% displacement of [3H]Example-3)
value kind: inhibition at 1 µM (%)
Report as a plain number; the unit % is understood.

molecule="COc1ccc(C(=O)Nc2ccc(N3CCN(c4cccc(C#N)n4)CC3)cc2)cc1 [Example 100]" unit_symbol=% endpoint_value=86
molecule="COc1ccc(C(=O)Nc2cnc(N3CCN(c4ccccn4)CC3)nc2)nc1 [Example 79]" unit_symbol=% endpoint_value=95
molecule="O=C(Nc1ccc(N2CCN(c3ccccn3)CC2)cc1)c1ccc2c(c1)OCO2 [Example 15]" unit_symbol=% endpoint_value=94

Let us examine a further case.
Given the molecule COc1ccc(C(=O)Nc2ccc(N3C[C@H]4CN(c5ccccn5)C[C@@H]4C3)cc2)cc1 [Example 132] , what is its reported inhibition at 1 µM?
82

* * *

target: native aSyn aggregates in A30P transgenic mouse brain sections (Homo sapiens, UniProt P37840, A30P); construct: from tissue; host or cells: brain sections (midbrain and pons as ROI) of A30P transgenic mice, line B6.D2-Tg(Thy1-SNCA*30P)31Pjk; assay: aSyn in vitro displacement assay ([3H]Example-3 autoradiography); assay type: binding, mutant human aSyn gene); settings: 1 μM compound; 3 nM [3H]Example-3; A30P transgenic mouse brain sections; read-out: PCT_INHIB A30P @ 1 μM (% displacement of [3H]Example-3)
value kind: inhibition at 1 µM

Given the compound O=C(Nc1ccc(N2CCN(c3nccs3)CC2)cc1)c1ccc(OCCOCCOCCF)cc1 , what is its reported inhibition at 1 µM?
81%

Same again, this time with COc1ccc(C(=O)Nc2ccc(N3C[C@@H]4CN(c5ccccn5)C[C@H]4C3)cc2)cc1
85%

Same again, this time with COc1ccc(C(=O)Nc2ccc(N3CCN(c4ccc(C#N)cc4F)CC3)cc2)cc1
98%

Same again, this time with O=C(Nc1ccc(N2CCN(c3nccs3)CC2)cc1)c1ccc(OCC(O)CF)cc1 (racemic)
81%

Same again, this time with COc1ccc(C(=O)Nc2ccc(N3CCN(c4ccccn4)CC3)cn2)nc1
94%

Same again, this time with N#Cc1ccc(N2CCN(c3ccc(NC(=O)c4ccc(OCCOCCOCCF)cc4)cc3)CC2)cc1
80%

Same again, this time with N#Cc1ccc(N2CCN(c3ccc(NC(=O)c4ccc(OCF)cc4)cc3)CC2)nc1
91%

Same again, this time with N#Cc1ccc(N2CCN(c3ccc(NC(=O)c4ccc(OCC(O)CF)cc4)cc3)CC2)cc1 (racemic)
88%

* * *

target: native Aβ aggregates in human AD brain tissue sections (Homo sapiens, UniProt P05067); construct: native Aβ aggregates in human AD brain tissue samples; from tissue; host or cells: human AD brain tissue sections; assay: Aβ in vitro displacement assay (selectivity counterscreen, [3H]Example 3 autoradiography); assay type: binding; conditions: 1 μM compound; 3 nM [3H]Example 3; human AD brain sections; read-out: sel. counterscreen PCT_INHIB AD @ 1 μM (% displacement of [3H]Example 3)
Sequence (P05067 672-713 limits assumed): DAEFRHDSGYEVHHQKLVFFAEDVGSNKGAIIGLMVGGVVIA
# inhibition at 1 µM listing for each entry below
Report as a plain number; the unit % is understood.

Sample records with inhibition at 1 µM:
compound="COc1ccc(C(=O)Nc2ccc(N3CCN(c4ccncc4)CC3)cc2)cc1 [Example 41]" target_under_test="native Aβ aggregates in human AD brain tissue sections (Homo sapiens, UniProt P05067)" value_kind="inhibition at 1 µM" endpoint_value=90
compound="CN1CCN(c2ccc(C(=O)Nc3cnc(N4CCN(c5ccccn5)CC4)cn3)cc2)CC1 [Example 87]" target_under_test="native Aβ aggregates in human AD brain tissue sections (Homo sapiens, UniProt P05067)" value_kind="inhibition at 1 µM" endpoint_value=98
compound="COc1ccc(C(=O)Nc2ccc(N3CCN(c4ccc(C#N)cc4)CC3)c(C)c2)cc1 [Example 112]" target_under_test="native Aβ aggregates in human AD brain tissue sections (Homo sapiens, UniProt P05067)" value_kind="inhibition at 1 µM" endpoint_value=74

Let us examine a further case.
Given the compound COc1ccc(C(=O)Nc2ccc(N3CCN(c4cc(C)ccn4)CC3)cc2)cc1 [Example 102] , what is its reported inhibition at 1 µM?
88
